# assayedSystem: T1, human PCSK9 (proprotein convertase subtilisin kexin type 9) (human, UniProt Q8NBP7 31-692)
# T1 construct: Directly immobilized (SPR ProteOn), biotinylated (BLI), or in solution, depending on the assay; also called hPCSK9
# T1 sequence (Q8NBP7 31-692 limits assumed): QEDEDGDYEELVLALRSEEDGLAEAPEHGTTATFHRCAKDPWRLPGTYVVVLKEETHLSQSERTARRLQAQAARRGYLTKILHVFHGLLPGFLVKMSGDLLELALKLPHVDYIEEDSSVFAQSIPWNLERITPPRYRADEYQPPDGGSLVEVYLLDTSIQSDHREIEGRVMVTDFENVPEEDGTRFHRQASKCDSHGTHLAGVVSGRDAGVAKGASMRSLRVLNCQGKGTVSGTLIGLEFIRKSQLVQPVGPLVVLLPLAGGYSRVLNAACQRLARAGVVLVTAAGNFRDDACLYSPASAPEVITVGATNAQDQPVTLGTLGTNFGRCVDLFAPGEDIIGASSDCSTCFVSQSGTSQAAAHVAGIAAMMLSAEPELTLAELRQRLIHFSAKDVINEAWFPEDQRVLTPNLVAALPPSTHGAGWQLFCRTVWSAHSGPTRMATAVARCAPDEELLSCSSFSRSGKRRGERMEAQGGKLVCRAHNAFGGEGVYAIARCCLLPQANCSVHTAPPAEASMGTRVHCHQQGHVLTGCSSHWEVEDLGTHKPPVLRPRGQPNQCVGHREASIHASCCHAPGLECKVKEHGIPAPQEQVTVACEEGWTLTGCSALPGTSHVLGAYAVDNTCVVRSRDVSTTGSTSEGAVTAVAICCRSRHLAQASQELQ
# testDescription: FRET direct binding, anti-his6 antibody
pEC50: −log10 of the molar value.
parameter: pEC50

>  <binder>
2451H07 (designed binder, Anti-PCSK9 Adnectin, His6-tagged) MGITDVPRDLEVVAATPTSLLISWNPPDVNYGYYRITYGETGGNSPLQEFTVPVSKGTATISGLKPGVDYTITVYAVEYPYAHAGYYHRPISINYRTEIDKPSQHHHHHH

>  <pEC50>
7.88

$$$$
>  <binder>
2382H03 (designed binder, Anti-PCSK9 Adnectin, His6-tagged) MGVSDVPRDLEVVAATPTSLLISWDAPAEGAYGYYRITYGETGGNSPVQEFTVPVSKGTATISGLKPGVDYTITVYAVEYPYPFAGYYHRPISINYRTEIDKPSQHHHHHH

>  <pEC50>
8.42

$$$$
>  <binder>
2451C06 (designed binder, Anti-PCSK9 Adnectin, His6-tagged) MGVSDVPRDLEVVAATPTSLLISWDAPAGAASYGYYRITYGETGGNSPVQEFTVPVSKGTATISGLKPGVDYTITVYAVEFPFPGAGYYHRPISINYRTEIDKPSQHHHHHH

>  <pEC50>
8.26

$$$$
>  <binder>
2381D04 (designed binder, Anti-PCSK9 Adnectin, His6-tagged) MGVSDVPRDLEVVAATPTSLLISWEPFSRLPGGGEYYRITYGETGGNSPLQQFTVPGSKGTATISGLKPGVDYTITVYAVEFPYDHSGYYHRPISINYRTEIDKPSQHHHHHH

>  <pEC50>
8.43

$$$$
>  <binder>
2012A04 (designed binder, Anti-PCSK9 Adnectin, His6-tagged) MGVSDVPRDLEVVAATPTSLLISWRPPSNGHGYYRITYGETGGNSPVQEFTVPVNEGTATISGLKPGVDYTITVYAVEFPFKWSGYYHRPISINYRTEIDKPSQHHHHHH

>  <pEC50>
8.85

$$$$
>  <binder>
2382D09 (designed binder, Anti-PCSK9 Adnectin, His6-tagged) MGVSDVPRDLEVVAATPTSLLISWDAPAEGYGYYRITYGETGGNSPVQEFTVPVSKGTATISGLKPGVDYTITVYAVEFDFPGAGYYHRPISINYRTEIDKPSQHHHHHH

>  <pEC50>
8.43

$$$$
>  <binder>
2382C09 (designed binder, Anti-PCSK9 Adnectin, His6-tagged) MGVSDVPRDLEVVAATPTSLLISWDAPAEGYGYYRITYGETGGNSPVQEFTVPVSKGTATISGLKPGVDYTITVYAVEFDFPGSGYYHRPISINYRTEIDKPSQHHHHHH

>  <pEC50>
8.54

$$$$
>  <binder>
1922G04 (designed binder, Anti-PCSK9 Adnectin, His6-tagged; also called ATI001057; ATI-1057) MGVSDVPRDLEVVAATPTSLLISWRPPSHAYGYYRITYGETGGNSPVQEFTVPIGKGTATISGLKPGVDYTITVYAVEYPWKGSGYYHRPISINYRTEIDKPSQHHHHHH

>  <pEC50>
8.60

$$$$

A = 2382E03 (designed binder, Anti-PCSK9 Adnectin, His6-tagged) MGVSDVPRDLEVVAATPTSLLISWDAPAGDGYGYYRITYGETGGNSPVQEFTVPVSKGTATISGLKPGVDYTITVYAVEFDFPGAGYYHRPISINYRTEIDKPSQHHHHHH
B = 2011H05 (designed binder, Anti-PCSK9 Adnectin, His6-tagged; also called ATI001091) MGVSDVPRDLEVVAATPTSLLISWVPSSHAYGYYRITYGETGGNSPVQEFTVPVGVGTATISGLKPGVDYTITVYAVEYAFEGAGYYHRPISINYRTEIDKPSQHHHHHH
Q: I'm curious whether A or B has the smaller pEC50 number. Which is it? # respond with the chosen item's label
A: A
(A: 8.43, B: 8.70)
